The compounds listed here are annotated with their EC50.
Tested on: SW-1736
TEST DETAILS: Cytotoxicity against human SW1736 cells after 96 hrs by SRB assay
Assay type: functional, cell-based
STUDY CONDITIONS: SW-1736, 96 h

>>> value_observed("CCN(CC)c1ccc2c(-c3ccccc3C(=O)O[C@H]3CC[C@]4(C)[C@H]5CC=C6[C@@H]7CC(C)(C)CC[C@]7(C(=O)OC)CC[C@@]6(C)[C@]5(C)CC[C@H]4C3(C)C)c3ccc(=[N+](CC)CC)cc-3oc2c1")
"1760 nM"

Here's the next entry for you.
Asked: Record request: EC50 value, item `CCN(CC)c1ccc2c(-c3ccccc3C(=O)O[C@H]3CC[C@]4(C)[C@H]5C(=O)C=C6[C@@H]7C[C@@](C)(C(=O)OC)CC[C@]7(C)CC[C@@]6(C)[C@]5(C)CC[C@H]4C3(C)C)c3ccc(=[N+](CC)CC)cc-3oc2c1`
Given back: 150 nM
